The measurements presented in this section are drawn from PubChem BioAssay AID504850.

assay.name: Confirmation screen for delayed death inhibitors of the malarial parasite plastid, 48 hour incubation; note: nearly all actives have a fitted effect of over 65% in size
conditions: P. falciparum-infected erythrocytes, luciferase growth; series mostly up to 28.7 µM
About 1,200 (52%) of roughly 2,300 compounds were called active. Roughly 34% stayed inconclusive and do not appear here. Calls come from the whole dose curve; as a rule, active = well fitted inhibition curve with a large enough effect; inconclusive = small, poorly fitted or top-dose-only effect, or effect the other way; inactive = no such curve, though single readings can be large or run the other way. The set was probably picked from earlier hits. Some of the results follow.
Reply using exactly one outcome from active, inactive

Input: Which result was noted for this molecule in the test: `Cc1sc(N/N=C/c2cccnc2)nc1-c1ccccc1`
Output: active

Input: Which outcome did this test record for the molecule `COc1cc(CN2CCN(S(=O)(=O)c3ccccc3)CC2)cc(OC)c1OC` ?
Output: active

Input: Assay result, entry `CCC(=O)Nc1cccc(C(=O)/C=C/c2cc(Br)ccc2OC)c1` — outcome?
Output: active

Input: Which outcome did this test record for the molecule CC(C)N1CCC2(CC1)N=C(c1ccc3c(c1)OCO3)CC(c1cc(Cl)ccc1O)N2 (configuration not stated) ?
Output: active

Input: Which outcome did this test record for the molecule CCCC(=O)N=C1SC2CS(=O)(=O)CC2N1c1ccc(CC)cc1 (configuration not stated) ?
Output: active

Input: Tell me the recorded outcome of this test for `COc1cccc2cc(C(=O)NCc3ccc(Cl)cc3)c(=N)oc12` .
Output: inactive

Input: Entry `COc1ccc(Cl)cc1NC(=O)C(=O)NCc1ccncc1` : call = ?
Output: inactive

Input: Test call for this molecule, please: `COc1cccc([C@@H]2Oc3ccc(OC)cc3C(=O)[C@H]2O)c1`
Output: active

Input: Look up the recorded call for COC1C(OC(=O)/C=C/C=C/C=C/C=C/C(=O)O)CCC2(CO2)C1C1(C)OC1CC=C(C)C (configuration not stated) in this test.
Output: active

Input: Field: outcome | Entry: `C/C(=N\NC(=S)NCC(C)(C)C)c1cc(F)cc(F)c1O`
Output: active

Input: I'd appreciate the recorded outcome for `O=C(Nc1cccc([N+](=O)[O-])c1)c1ccc2nsnc2c1` from this test.
Output: inactive

Input: # fetch the recorded call for `O=C(CSc1nc2ccccc2n1-c1ccccc1)Nc1ncc(Cl)cc1Cl` here
Output: active

Input: Kindly provide the recorded test outcome for the following molecule: `COc1cccc(NC(=O)c2oc3ccccc3c2NC(=O)C2CC2)c1`
Output: active

Input: Check the results log: what was the call for `Cc1cc(=O)oc2ccc(OCC(=O)N3CCc4ccccc43)cc12` ?
Output: active

Input: Which outcome was assigned to `CC(=O)Nc1cccc(C(=O)/C=C/c2ccc(Br)cc2)c1` in this test?
Output: active

Input: Assay result, entry `CSc1c(CC(=O)Nc2ccccc2)n(C)c2ccccc12` — outcome?
Output: active

Input: Any idea what this test logged for `O=C(Nc1cccc(Br)c1)c1ccc2snnc2c1` ?
Output: inactive

Input: Dear all, I need the recorded test outcome for `COc1ccc(CCNC(=O)c2cc3c(=O)n4cccc(C)c4nc3n(Cc3ccco3)c2=N)cc1OC` , thank you.
Output: active

Input: What outcome does the record of this test show for CCCN1C(=O)c2ccccc2NC1c1ccc(OC)cc1O (configuration not stated) ?
Output: active

Input: // param item: `CC(=O)Nc1cccc(Oc2ncnc3scc(-c4ccc(C(C)C)cc4)c23)c1` ; yields the recorded call
Output: active

Input: Hi, do you know how CCOC(=O)N1CCN(C(=O)c2ccc3c(c2)N(Cc2cc(C)ccc2C)C(=O)c2ccccc2S3=O)CC1 (configuration not stated) came out in this test?
Output: active

Input: Outcome? `CC(=O)N1CCSc2ccc(S(=O)(=O)Nc3ccc(C)cc3)cc21`
Output: active
